Data origin: PubChem BioAssay AID248

tested on: L1210 leukemia ip in BDF1 mice, survival T/C; test: NCI In Vivo Anticancer Drug Screen. Data for tumor model L1210 Leukemia (intraperitoneal) in B6D2F1 (BDF1) mice; conditions: endpoint: mean survival time; dose: 12.5 mg/kg/injection; schedule: Q01DX009 (ip); vehicle: Klucel (hydroxypropylcellulose) (HPC); higher = longer survival
Inconclusive results and toxic doses are left out.
Entries and their measured T/C follow.
Readout kind: T/C

>>> result("CCCCNC(=O)C1C=C2c3cccc4[nH]cc(c34)CC2N(C)C1 (stereo not given)")
"102 % of control"
>>> result("CC(C)C(C#N)c1ccccc1 (stereo not given)")
"97 % of control"
>>> result("CCOC(=O)c1cnc(SC)nc1Nc1c(Br)cc(Br)cc1Br")
"102 % of control"
>>> result("COc1ccc(C(=Nc2ccc(C)cc2)c2ccccc2)cc1")
"102 % of control"
>>> result("CN(CCc1cnc2nc(N)nc(N)c2n1)c1ccc(C(=O)NC(CCC(=O)O)C(=O)O)cc1 (stereo not given)")
"113 % of control"
>>> result("O=C1C=CC(=O)N1CCc1ccccc1")
"97 % of control"
>>> result("CCCCCCCCCC(=O)NN=C(C)C")
"92 % of control"
>>> result("C[n+]1ccccc1/C=C/c1ccc2c(c1)OCO2")
"94 % of control"
>>> result("CCCC[S][Hg][I]")
"110 % of control"
>>> result("C=C=[CH][Sn]([c]1ccccc1)([c]1ccccc1)[c]1ccccc1")
"100 % of control"

###

system: L1210 leukemia ip in BDF1 mice, survival T/C; assay: NCI In Vivo Anticancer Drug Screen. Data for tumor model L1210 Leukemia (intraperitoneal) in B6D2F1 (BDF1) mice; conditions: endpoint: mean survival time; dose: 200.0 mg/kg/injection; schedule: Q04DX003 (ip); vehicle: saline; higher = longer survival
Toxic doses and inconclusive results are not listed.
Readout kind: T/C

>>> result("CCOC(=O)c1nc(NC)sc1N")
"100 % of control"
>>> result("O=C(Oc1ccc([N+](=O)[O-])cc1)c1ccc(CBr)cc1")
"94 % of control"
>>> result("C=CC(C)C1CCC2(C)C3=C(C(=O)CC12C)C1(C)C/C(=N/O)C(O)C(C)(C)C1=C(O)C3=O (centres undefined)")
"95 % of control"
>>> result("O=C1c2ccccc2-c2nc3cncnc3nc21 (tested in a mixture with another compound)")
"101 % of control"

###

system: L1210 leukemia ip in BDF1 mice, survival T/C; test: NCI In Vivo Anticancer Drug Screen. Data for tumor model L1210 Leukemia (intraperitoneal) in B6D2F1 (BDF1) mice; conditions: endpoint: mean survival time; dose: 400.0 mg/kg/injection; schedule: Q01DX009 (ip); vehicle: saline; higher = longer survival
Inconclusive results and toxic doses are left out.
Readout kind: T/C

>>> result("O=C(O)c1ccc(N2C(=O)c3ccccc3C2=O)cc1[N+](=O)[O-]")
"107 % of control"
>>> result("O=C1NC(O)CCN1C1OC(CO)C(O)C1O (configuration not stated)")
"90 % of control"
>>> result("CN(C)C(=O)c1cccc(N)c1")
"90 % of control"
>>> result("O=C(OCC#CCOC(=O)C(Cl)Cl)C(Cl)Cl")
"94 % of control"
>>> result("O=c1[n-]cc(F)c(=O)[nH]1.O=c1[n-]cc(F)c(=O)[nH]1.[NH2-].[NH2-].[Pt+4]")
"109 % of control"
>>> result("CC1COCC(C)N1 (configuration not stated)")
"92 % of control"
>>> result("CN(N)C(=N)N")
"96 % of control"

###

system: L1210 leukemia ip in BDF1 mice, survival T/C; test: NCI In Vivo Anticancer Drug Screen. Data for tumor model L1210 Leukemia (intraperitoneal) in B6D2F1 (BDF1) mice; settings: endpoint: mean survival time; dose: 75.0 mg/kg/injection; schedule: Q01DX001 (ip); vehicle: other; higher = longer survival
Toxic doses and inconclusive results are not listed.
Readout kind: T/C

>>> result("Cc1c(Cl)cccc1Nc1n[nH]c(=S)s1")
"98 % of control"
>>> result("O=C(O)c1cccc(C2CCCCC2)c1")
"106 % of control"
>>> result("CNC(=O)Oc1ccc2ccccc2c1[N+](=O)[O-]")
"101 % of control"
>>> result("Cc1ccc(S(=O)(=O)C2=CC(=O)c3ccccc3C2=O)cc1")
"88 % of control"
>>> result("C(=N\\Nc1ccc2ccccc2n1)/c1ccccn1")
"108 % of control"
>>> result("CCCCCCCCCCCCCCCCC(=O)O.[Pb]")
"94 % of control"

###

Entries and their measured T/C follow.
system: L1210 leukemia ip in BDF1 mice, survival T/C; experiment: NCI In Vivo Anticancer Drug Screen. Data for tumor model L1210 Leukemia (intraperitoneal) in B6D2F1 (BDF1) mice; details: endpoint: mean survival time; dose: 100.0 mg/kg/injection; schedule: Q04DX003 (ip); vehicle: saline with Tween-80; higher = longer survival
Toxic doses and inconclusive results are not listed.
Readout kind: T/C

>>> result("O=c1[nH]c(=O)n(CC(O)c2ccc(Cl)s2)cc1F (configuration not stated)")
"100 % of control"
>>> result("C=CCCCCCCCCC(=O)NCCN1CCOCC1")
"101 % of control"
>>> result("CCOC(=O)C(=CNc1cccc2ccncc12)C(=O)OCC")
"104 % of control"
>>> result("CC1=C(C)CS(=O)(=O)C1")
"102 % of control"
>>> result("[O-][n+]1onc2c(-c3ccccc3)nnc(-c3ccccc3)c21")
"108 % of control"
>>> result("Cc1ccc(CC2CC(=O)c3ccccc3C2=O)cc1 (configuration not stated)")
"91 % of control"
>>> result("COC(OC)c1cc(=O)[nH]c(NC(=O)C(Cl)Cl)n1")
"98 % of control"
>>> result("CCCCn1c(O)c(C=N)c(=O)n(CCCC)c1=O")
"89 % of control"
>>> result("CCCCSP(=S)(OCC)OCC")
"101 % of control"
>>> result("O=[N+]([O-])c1cccc(OCCOc2ccc(S(=O)(=O)F)cc2)c1")
"106 % of control"
>>> result("Cc1c([N+](=O)[O-])cc(I)cc1[N+](=O)[O-]")
"106 % of control"
>>> result("COc1cc(Nc2nc(Cl)ncc2[N+](=O)[O-])cc(OC)c1OC")
"90 % of control"

###

test system: L1210 leukemia ip in BDF1 mice, survival T/C; assay: NCI In Vivo Anticancer Drug Screen. Data for tumor model L1210 Leukemia (intraperitoneal) in B6D2F1 (BDF1) mice; conditions: endpoint: mean survival time; dose: 100.0 mg/kg/injection; schedule: Q01DX009 (ip); vehicle: saline with Tween-80; higher = longer survival
Toxic doses and inconclusive results are not listed.
Readout kind: T/C

>>> result("O=C(O)c1ccc(CCCCCCl)cc1")
"103 % of control"
>>> result("O=[N+]([O-])c1ccc(/C=N\\Nc2ccc([N+](=O)[O-])cn2)cc1")
"95 % of control"
>>> result("COc1ccc(/C=C2\\N=C(c3cccc(Cl)c3)OC2=O)cc1OC")
"105 % of control"
>>> result("CC(=O)Nc1c(C)cc(Cl)cc1Cl")
"91 % of control"
>>> result("COC(=O)c1ccccc1NC(=O)C(Br)C(Br)C(=O)O (configuration not stated)")
"96 % of control"
>>> result("NC(=S)N/N=C/c1cc(-c2cccc(N)c2)ccn1")
"114 % of control"
>>> result("CCOC(CS(=O)(=O)CC(N)=O)OCC")
"97 % of control"
>>> result("CCOc1ccc(NC(=S)NC(=O)c2ccco2)cc1")
"93 % of control"
>>> result("Nc1nc(NCCCc2ccccc2)c([N+](=O)[O-])c(=O)[nH]1")
"93 % of control"
>>> result("N#CC(c1ccccc1)C(c1ccccc1)C(C(=O)c1ccccc1)c1ccccc1 (configuration not stated)")
"100 % of control"
>>> result("CSc1cc(N)cc(C(=O)O)c1O")
"92 % of control"
>>> result("CC(=O)Nc1ccc2c(c1)C[N+](C)(C1CCCCC1)CO2 (configuration not stated)")
"95 % of control"

###

Test system: L1210 leukemia ip in BDF1 mice, survival T/C
Experiment: NCI In Vivo Anticancer Drug Screen. Data for tumor model L1210 Leukemia (intraperitoneal) in B6D2F1 (BDF1) mice
Conditions: endpoint: mean survival time; dose: 400.0 mg/kg/injection; schedule: Q01DX001 (ip); vehicle: carboxymethylcellulose (CMC); higher = longer survival
Description: The antitumor activity of compounds was measured in mice bearing transplantable tumors. Survival or tumor size were measured and the results are expressed as the measurement made in the treated group (T) divided by the measurement made in the vehicle treated control group (C). The tumor model used in this assay is L1210 Leukemia (intraperitoneal) in B6D2F1 (BDF1) mice
Toxic doses and inconclusive results are not listed.
Readout kind: T/C

>>> result("Nc1cccc(OCc2cccc([N+](=O)[O-])c2)c1")
"86 % of control"
>>> result("Nc1cc2c(cc1Br)[nH]c(=O)c1ccccc12")
"93 % of control"
>>> result("CC(=O)NC(CSC(=N)N)C(=O)O (centres undefined)")
"102 % of control"
>>> result("O/N=C(\\c1ccccc1)C(O)c1ccccc1 (centres undefined)")
"102 % of control"
>>> result("COc1cc2cc3c4cc(OC)c(OC)cc4cc[n+]3c(/C=C\\c3ccccc3O)c2cc1OC")
"116 % of control"
>>> result("Cc1ccc2cccnc2c1")
"86 % of control"
>>> result("C1N2CN3CN1CN(C2)C3")
"101 % of control"
>>> result("CCN(CC)CCNc1nc(N)c(C#N)c(C#N)c1C#N")
"96 % of control"
>>> result("C1CCC(C2CCCC(C3CCCCC3)C2)CC1 (centres undefined)")
"94 % of control"
>>> result("CCc1ccc(NC(=O)NCCCl)cc1")
"106 % of control"
>>> result("CC1([N+](=O)[O-])COP(=O)(NCc2cccnc2)OC1 (centres undefined)")
"95 % of control"
>>> result("O=C1NC(=O)C(=Cc2ccccc2[N+](=O)[O-])C(=O)N1")
"87 % of control"
>>> result("O=[N+]([O-])c1c[nH]c2ncnc(SCc3ccccc3)c12")
"91 % of control"
>>> result("CCOC(=O)c1ccc(S(=O)(=O)N(CC)CC)cc1")
"102 % of control"
>>> result("Cc1ccc(NC2=C(Cl)C(=O)C(Nc3ccc(C)cc3)=C(Cl)C2=O)cc1")
"92 % of control"
>>> result("N/N=C1\\c2ccccc2-c2ccc([N+](=O)[O-])cc21")
"95 % of control"
>>> result("O=C(OC1CC2CC1C1C=CCC21)c1ccc([N+](=O)[O-])cc1 (centres undefined)")
"96 % of control"
>>> result("CC(=O)OC1c2ccccc2C2c3ccccc3C1C2Cl (centres undefined)")
"92 % of control"
>>> result("CCOC(=O)N(O)c1ccc(/C=C/c2ccccc2)cc1")
"98 % of control"
>>> result("CCCCCCC(=O)OCCN1CCN(CC/C=C2\\c3ccccc3Sc3ccc(C(F)(F)F)cc32)CC1")
"94 % of control"
>>> result("CN(C)C(=O)CCCc1ccc(N(CCCl)CCCl)cc1")
"103 % of control"
>>> result("COc1ccc(OC)c(CC(C)O)c1 (centres undefined)")
"98 % of control"
>>> result("O=C(CC1(c2ccccc2)C(=O)c2ccccc2C1=O)c1ccccc1")
"94 % of control"
>>> result("N#CC1(c2ccccc2)CCCCC1")
"94 % of control"
